Can you tell me pEC50 for the items I'm about to list?
assayProcedure: Inhibition of HCV genotype 1a NS5A polymerase L31V/Y93H double mutant infected in human HuH7 replicon cells by luciferase reporter gene assay
Give bare numbers, as −log10 of the molar value.

Solved cases (3 shown):
CNC(=O)c1c(-c2ccc(F)cc2)oc2cc3c(cc12)C(C)NC(=O)CN3S(C)(=O)=O (centres undefined) ... 7.85
CNC(=O)c1c(-c2ccc(F)cc2)oc2cc3c(cc12)C1(CCCN3S(C)(=O)=O)CC1 ... 6.93
CNC(=O)c1c(-c2ccc(F)cc2)oc2cc3c(cc12)[C@@H](C)CCCN3S(C)(=O)=O ... 7.05

For every record below, what is its pEC50?
1. CNC(=O)c1c(-c2ccc(F)cc2)oc2cc3c(cc12)[C@@H]1C[C@@H]1CCN3S(C)(=O)=O
2. CNC(=O)c1c(-c2ccc(F)cc2)oc2cc3c(cc12)C(=O)CCCN3S(C)(=O)=O
3. CNC(=O)c1c(-c2ccc(F)cc2)oc2cc3c(cc12)[C@H](C)CCCN3S(C)(=O)=O
4. CONC(=O)c1c(-c2ccc(F)cc2)oc2cc3c(cc12)CCCCN3S(C)(=O)=O
5. CNC(=O)c1c(-c2ccc(F)cc2)oc2cc3c(cc12)CCCCN3S(=O)(=O)C1CC1
6. CNC(=O)c1c(-c2ccc(F)cc2)oc2cc3c(cc12)C1CC1CCN3S(C)(=O)=O (centres undefined)

1. 7.60
2. 6.50
3. 8.05
4. 7.05
5. 6.37
6. 7.36

###

Give pEC50 for every item shown.
assayProcedure: Inhibition of HCV genotype 1b NS5B polymerase infected in human HuH7 replicon cells by luciferase reporter gene assay
Answers are plain numbers, as −log10 of the molar value.

Some compounds with recorded pEC50:
CNC(=O)c1c(-c2ccc(F)cc2)oc2cc3c(cc12)C(C)OC1(CC1)CN3S(C)(=O)=O (stereo not drawn) ... 7.72
CNC(=O)c1c(-c2ccc(F)cc2)oc2cc3c(cc12)[C@@H]1C[C@@H]1CCN3S(C)(=O)=O ... 8.15

Recorded pEC50 for CNC(=O)c1c(-c2ccc(F)cc2)oc2cc3c(cc12)[C@H](C)O[C@@H](CS(C)(=O)=O)CN3S(C)(=O)=O , please?
7.89

###

assayProcedure: Inhibition of HCV genotype 1a NS5A polymerase L31V/Y93H double mutant infected in human HuH7 replicon cells by luciferase reporter gene assay
For each entry below, report its EC50 value.

Worked set:
CS(=O)(=O)NC(=O)c1c(-c2ccc(F)cc2)oc2cc3c(cc12)CCCCN3S(C)(=O)=O ... > 2000 nM
CS(=O)(=O)N1CCCCc2cc3c(C4=NCCN4)c(-c4ccc(F)cc4)oc3cc21 ... > 2000 nM
CNC(=O)c1c(-c2ccc(F)cc2OC)oc2cc3c(cc12)C(C)CCCN3S(C)(=O)=O (stereo not given) ... > 2000 nM
CN(C)C(=O)c1c(-c2ccc(F)cc2)oc2cc3c(cc12)CCCCN3S(C)(=O)=O ... > 2000 nM
CS(=O)(=O)N1CCCCc2cc3c(C(=O)NC#N)c(-c4ccc(F)cc4)oc3cc21 ... > 2000 nM
CN(O)C(=O)c1c(-c2ccc(F)cc2)oc2cc3c(cc12)CCCCN3S(C)(=O)=O ... > 2000 nM

Please state, for each entry, its recorded EC50.
1. CS(=O)(=O)N1CCCCc2cc3c(C(=O)NC4CC4)c(-c4ccc(F)cc4)oc3cc21
2. CNC(=O)c1c(-c2ccc(F)cc2)oc2cc3c(cc12)CCCCN3C(C)=O
3. CNC(=O)c1c(-c2ccc(F)cc2)oc2cc3c(cc12)[C@H]1C[C@H]1CCN3S(C)(=O)=O
4. CS(=O)(=O)N1CCCCc2cc3c(C(N)=O)c(-c4ccc(F)cc4)oc3cc21

1. > 2000 nM
2. > 2000 nM
3. > 2000 nM
4. > 2000 nM
